- measurement-target: MrHR (Mastigocladopsis repens, UniProt A0A6P3CW41, E182T)
- Sequence (A0A6P3CW41 1-232 E182T): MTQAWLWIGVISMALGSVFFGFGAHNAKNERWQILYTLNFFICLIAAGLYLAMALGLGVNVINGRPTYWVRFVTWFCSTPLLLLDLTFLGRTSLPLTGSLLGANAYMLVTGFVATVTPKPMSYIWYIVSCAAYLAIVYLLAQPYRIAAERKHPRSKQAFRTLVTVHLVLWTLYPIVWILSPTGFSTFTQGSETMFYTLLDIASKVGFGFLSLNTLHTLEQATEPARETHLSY
- test-name: biochemical
recorded-endpoint: Kd (µM)
Answers are plain numbers, in µM.

[in] Data request, read-out Kd, for Cl
[out] 1180
